System: CEM cells HIV-1 protection, formazan growth assay
procedure text: NCI AIDS Antiviral Assay
assay conditions: measured here: growth of uninfected CEM cells
quantity measured: IC50 (µM)

1. COc1cccc(/C=C(\C#N)C(=O)O)c1 | 158
2. CCC1OC(=O)[C@H](C)C(OC2CC(C)(OC)C(O)C(C)O2)C(C)C(OC2OC(C)CC(N(C)C)C2O)[C@](C)(O)CC(C)CN(C)[C@H](C)[C@@H](O)[C@]1(C)O (stereo partly specified) | 132
3. Nc1ncnc2c1ncn2C1C=CC(COS(N)(=O)=O)C1 (stereo unspecified) | 52.5
4. CC1(C)N=C(c2ccccn2)C(c2ccccn2)=NC1(C)C | 661
5. C/C(CC(O)(C(F)(F)Cl)C(F)(F)Cl)=N\NC(N)=S | 110

###

Test system: CEM cells HIV-1 protection, formazan growth assay
procedure text: NCI AIDS Antiviral Assay
assay conditions: measured here: growth of uninfected CEM cells
Reported IC50 values for a set of compounds
quantity measured: IC50

1) Cc1cc(C)c2cc(=O)oc-2c(C)c1 | > 93.3 µM
2) O=C1/C(=C/c2ccc3c(c2)CCC3)Cc2cc3c(cc21)CCC3 | > 200 µM
3) COc1ccccc1NC(=O)/C(=C\N1C(=O)CC(=O)NC1=S)C(C)=O | > 200 µM
4) O=C(/C=C/c1ccc2c(c1)OCO2)NCCc1ccco1 | 126 µM
5) COc1ccc(-c2coc3cc(OC)cc(O)c3c2=O)cc1 | > 200 µM
6) NC(=O)Cc1nc2c(N)ncnc2n1C1OC(CO)C(O)C1O (stereo unspecified) | > 200 µM
7) CC(=O)OCC1OC(n2c(C)cc(-c3ccco3)c(C#N)c2=S)C(OC(C)=O)C(OC(C)=O)C1OC(C)=O (stereo unspecified) | > 200 µM
8) CC(=O)OC1CCC2C3CCc4c(C)ccc(OS(=O)(=O)c5ccccc5)c4C3CCC12C (stereo unspecified) | > 200 µM
9) N/C(=N\N=C\c1cccc2ccccc12)N/N=C/c1cccc2ccccc12 | 9.12 µM
10) CC(=O)O[C@]12CCCCC1C1(O)C(O)CCCCC12 (stereo partly specified) | > 200 µM
11) CC(C)(C)SS(=O)C(C)(C)C (stereo unspecified) | > 97.7 µM

###

Test system: CEM cells HIV-1 protection, formazan growth assay
procedure text: NCI AIDS Antiviral Assay
assay conditions: measured here: growth of uninfected CEM cells
quantity measured: IC50 (µM)

1. COC(=O)C1(Cc2ccc3c(c2)CCC3)Cc2ccccc2C1 | 35.5
2. COC(=O)/C=C1\C(CO[Si](C)(C)C(C)(C)C)OC(n2ccc(=O)[nH]c2=O)C1O (stereo unspecified) | 6.17
3. COc1ccc(C2CC(c3ccc4ccccc4c3O)=NN2)cc1OC (stereo unspecified) | 42.7
4. Cc1ccsc1/C=N/Nc1nc2ccccc2s1 | 105

###

Reported log10(IC50) values for a set of compounds
Test system: CEM cells HIV-1 protection, formazan growth assay
procedure text: NCI AIDS Antiviral Assay
assay conditions: measured here: growth of uninfected CEM cells
quantity measured: log10(IC50) (log10 of the value in µM)

1. COc1cc(C2CC(=O)c3ccccc3O2)ccc1O (centres undefined) | 1.07
2. COc1ccc2c(c1)c1c(n2CCN(C)C)-c2cccc(OC)c2CC1 | 1.04
3. OCC(S)CS (centres undefined) | 1.86
4. O=C(Cc1ccccc1)NN1C(=O)C(Cl)C1c1cc(Br)ccc1O (centres undefined) | 0.84
5. CCCCCCc1ccc(C(=O)NO)cc1 | 1.96
6. O=C(c1nc2ccc(Cl)cc2[nH]c1=O)C(O)c1ccc2c(c1)OCO2 (centres undefined) | 1.39
7. OC1(C#CCN2CCCC2)c2ccccc2Sc2ccccc21.[C-]#[O+].[C-]#[O+].[C-]#[O+].[C-]#[O+].[C-]#[O+].[C-]#[O+].[Co].[Co] | 0.62
8. Nc1nc(-c2ccco2)cc(-c2ccc(CO)o2)n1 | 2.03
9. COC1=C(Br)[C@H](O)[C@@]2(C=C1Br)CC(C(=O)NCCCOc1c(Br)cc(C(O)CNC(C)=O)cc1Br)=NO2 (some centres undefined) | 0.82
10. COC(=O)CN1SC2(SC13C(C)(C)C(=O)C3(C)C)C(C)(C)C(=O)C2(C)C | 1.70
